Target: T1, SARS-CoV-2 Receptor Binding Domain (RBD) protein (SARS-CoV-2, UniProt P0DTC2 319-541)
T1 construct: also called Sars-Cov-2 (COV2)
Assay: SPR (Carterra LSA); scFv captured by anti-V5, RBD as analyte
# koff per entry
parameter: koff (s⁻¹)

binder	unit_name	result_number
COVID19_P14_F07 (scFv, V domains shown) VH: QVQLVQSGAEVKKPGSSVKVSCKASGGTFSSYAISWMRQAPGQGLEWMGWINPNSGGTNYAQKFQGRVTITADESTSTAYMELSNLRSEDTAVYYCARDTYWGGMDVWGQGTLVTVSS VL: SSYVLTQPPSVSVAPGKTARITCGGNNIGSKSVHWYQQKPGQAPVLVIYYDSDRPSGIPERFSGSNSGNTATLTISRVEAGDEADYYCQVWDSSSFYVFGGGTKLTVLA	s⁻¹	0.00245
COVID19_P13_H02 (scFv, V domains shown) VH: QVQLVQSGAEVKKPGSSVKVSCKASGYTFTGFYMQWVRQAPGQGLEWMGGITPILGTANYAQKFQGRVTITADESTSTAYMELSSLRSEDTAVYYCAREIVMGGMDVWGQGTLVTVSS VL: SSYVLTQPPSVSVAPGKTARITCGGNNIGSKSVHWYQQKPGQAPVLVIYYDSDRPSGIPERFSGSNSGNTATLTISRVEAGDEADYYCQSWDSSSDYVFGGGTKLTVLA	s⁻¹	0.0084
COVID19_P13_B12 (scFv, V domains shown) VH: QVQLVQSGAEVKKPGSSVKVSCKASGYTFTDFHMHWVRQAPGQGLEWMGGIIPIFGTANYAQKFQGRVTITADESTSTAYMELSSLRSEDTAVYYCALETVMGGMDVWGQGTLVTVSS VL: SSYVLTQPPSVSVAPGKTARITCGGNNIGSKSVHWYQQKPGQAPVLVIYYDSDRPSGIPERFSGSNSGNTATLTISRVEAGDEADYYCQVWDSSSDYVFGGGTKLTVLA	s⁻¹	0.0049
